Where these numbers come from: patent US4897409A

This section lists IC50 readings for MAO-B of the brain of a rat (Rattus norvegicus).
readout: IC50 (nM)

# compound, measValue
records = [
    ("C[C@H]([C@@H]1CN(c2ccc(OCc3cccc(Cl)c3)cc2)C(=O)O1)N(C)C [compound 340746]", 1600),
]

[I] C[C@H](N)[C@H]1CN(c2ccc(OCc3cccc(Cl)c3)cc2)C(=O)O1 (relative stereo) [compound 340750]
[II] CN[C@@H](C)[C@@H]1CN(c2ccc(OCc3cccc(Cl)c3)cc2)C(=O)O1 [compound 340333]
[III] COc1cccc(COc2ccc(N3C[C@@H]([C@@H](C)N(C)C)OC3=O)cc2)c1 [compound 340747]
q: Let's sort these by IC50, smallest first. Go ahead? Please write the labels in the order that was asked for.
a: I, II, III
(I: 380 nM, II: 1280 nM, III: 15000 nM)

---

# key: entry, value: ratio IC 50 (A) / IC 50 (B) (head is drawing 22)
Target: MAO-B of the brain of a rat (Rattus norvegicus)
Construct: total rat brain homogenate, with 1 g of tissue/16 ml of phosphate buffer; from tissue; host or cells: rat brain, total homogenate
Sequence (P19643 1-520): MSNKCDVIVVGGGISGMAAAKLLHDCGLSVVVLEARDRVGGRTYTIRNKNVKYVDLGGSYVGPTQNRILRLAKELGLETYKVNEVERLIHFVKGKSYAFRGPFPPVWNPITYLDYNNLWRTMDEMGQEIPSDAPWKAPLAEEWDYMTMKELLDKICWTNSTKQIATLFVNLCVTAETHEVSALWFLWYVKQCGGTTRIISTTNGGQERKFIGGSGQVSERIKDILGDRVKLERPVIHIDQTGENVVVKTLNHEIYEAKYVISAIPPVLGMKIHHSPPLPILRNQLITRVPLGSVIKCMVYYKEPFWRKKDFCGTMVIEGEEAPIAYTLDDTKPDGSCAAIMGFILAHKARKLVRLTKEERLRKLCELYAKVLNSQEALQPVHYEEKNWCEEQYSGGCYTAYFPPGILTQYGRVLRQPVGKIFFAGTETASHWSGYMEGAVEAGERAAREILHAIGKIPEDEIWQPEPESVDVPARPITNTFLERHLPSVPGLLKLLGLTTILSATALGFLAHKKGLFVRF
Assay: in vitro inhibition of MAO-B, total rat brain homogenate
Type: biochemical
Settings: preincubation of 60'; selectivity MAO-B over MAO-A; 60 min

# example entries with known answers
# molecule, measValue
records = [
    ("COc1cccc(COc2ccc(N3C[C@H]([C@@H](C)N(C)C)OC3=O)cc2)c1 (relative stereo) [compound 340749]", "> 10"),
    ("CN[C@@H](C)[C@H]1CN(c2ccc(OCc3cccc(Cl)c3)cc2)C(=O)O1 [compound 340271]", 95),
    ("C[C@@H]([C@H]1CN(c2ccc(OCc3cccc(Cl)c3)cc2)C(=O)O1)N(C)C (relative stereo) [compound 340742]", "> 6250"),
]

q: Given the entry CN[C@@H](C)[C@@H]1CN(c2ccc(OCc3cccc(Cl)c3)cc2)C(=O)O1 [compound 340333] , what ratio IC 50 (A) / IC 50 (B) (head is drawing 22) was observed with MAO-B of the brain of a rat (Rattus norvegicus)?
a: > 78

q: Given the entry C[C@H]([C@@H]1CN(c2ccc(OCc3cccc(Cl)c3)cc2)C(=O)O1)N(C)C [compound 340746] , what ratio IC 50 (A) / IC 50 (B) (head is drawing 22) was observed with MAO-B of the brain of a rat (Rattus norvegicus)?
a: > 625

q: Given the entry COc1cccc(COc2ccc(N3C[C@H]([C@H](C)N(C)C)OC3=O)cc2)c1 [compound 340744] , what ratio IC 50 (A) / IC 50 (B) (head is drawing 22) was observed with MAO-B of the brain of a rat (Rattus norvegicus)?
a: > 4000
